Species: Homo sapiens
MEASUREMENT NOTES: Selectivity ratio of Ki for human adenosine A1 receptor to Ki for human adenosine A2A receptor
Collected Ratio Ki values appear next to each entry.
MEASURED ATTRIBUTE: Ratio Ki

[
  {
    "MOLECULE SMILES": "CC(C)(C)CC(=O)N1CCN(c2nc(N)n3nc(-c4ccco4)nc3n2)CC1",
    "TEST RESULT": 900
  },
  {
    "MOLECULE SMILES": "Nc1nc(N2CCN(Cc3cccc(Cl)c3)CC2)nc2nc(-c3ccco3)nn12",
    "TEST RESULT": 29
  },
  {
    "MOLECULE SMILES": "CC(C)(C)OC(=O)NCCOCCOCCNc1nc(N)n2nc(-c3ccco3)nc2n1",
    "TEST RESULT": 89
  },
  {
    "MOLECULE SMILES": "Nc1nc(O)nc2nc(-c3ccco3)nn12",
    "TEST RESULT": 15.5
  },
  {
    "MOLECULE SMILES": "Nc1nc(N)n2nc(-c3ccco3)nc2n1",
    "TEST RESULT": 9
  },
  {
    "MOLECULE SMILES": "Nc1nc(NC(=O)c2ccccc2)n2nc(-c3ccco3)nc2n1",
    "TEST RESULT": 40
  },
  {
    "MOLECULE SMILES": "CC(C)(C)OC(=O)NCCCCCNc1nc(N)n2nc(-c3ccco3)nc2n1",
    "TEST RESULT": 21.5
  },
  {
    "MOLECULE SMILES": "Nc1nc(N2CCN(Cc3ccc(Br)cc3)CC2)nc2nc(-c3ccco3)nn12",
    "TEST RESULT": 3.2
  }
]

----------
Collected Activity values appear next to each entry.
TARGET DESC: UniProt:P0DMS8
Sequence (P0DMS8 whole entry): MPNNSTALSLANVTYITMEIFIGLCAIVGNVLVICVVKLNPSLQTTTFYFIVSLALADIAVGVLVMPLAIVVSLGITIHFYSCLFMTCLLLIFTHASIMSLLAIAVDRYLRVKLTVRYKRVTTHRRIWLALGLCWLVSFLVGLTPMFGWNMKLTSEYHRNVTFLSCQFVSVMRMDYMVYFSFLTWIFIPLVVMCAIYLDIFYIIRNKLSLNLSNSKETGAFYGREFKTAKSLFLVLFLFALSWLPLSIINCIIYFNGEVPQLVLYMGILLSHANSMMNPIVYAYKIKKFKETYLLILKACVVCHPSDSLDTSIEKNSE
MEASUREMENT NOTES: Displacement of [I125]I-AB-MECA from human adenosine A3 receptor expressed in CHO cells at 10 uM by scintillation counting
Assay type: cell-based

[
  {
    "COMPOUND": "Nc1nc(N2CCNCC2)nc2nc(-c3ccco3)nn12",
    "Activity, %": 29.9
  },
  {
    "COMPOUND": "Nc1nc(N2CCN(Cc3cccc(Cl)c3)CC2)nc2nc(-c3ccco3)nn12",
    "Activity, %": 52.7
  },
  {
    "COMPOUND": "COC(=O)CCC(=O)N1CCN(c2nc(N)n3nc(-c4ccco4)nc3n2)CC1",
    "Activity, %": 37.2
  },
  {
    "COMPOUND": "NCCCCCNc1nc(N)n2nc(-c3ccco3)nc2n1",
    "Activity, %": 49.9
  },
  {
    "COMPOUND": "CC(C)(C)OC(=O)NCCOCCOCCNc1nc(N)n2nc(-c3ccco3)nc2n1",
    "Activity, %": 74
  },
  {
    "COMPOUND": "NCC1CCC(CNc2nc(N)n3nc(-c4ccco4)nc3n2)CC1.O=C(O)C(F)(F)F (stereo not drawn)",
    "Activity, %": 72.8
  },
  {
    "COMPOUND": "Nc1nc(N2CCN(C(=O)c3ccccc3)CC2)nc2nc(-c3ccco3)nn12",
    "Activity, %": 22.6
  },
  {
    "COMPOUND": "Nc1nc(N2CCN(Cc3ccc(Br)cc3)CC2)nc2nc(-c3ccco3)nn12",
    "Activity, %": 49.8
  }
]

The origin of these recorded values is ChEMBL document CHEMBL1926574.
